Just for reference, patent EP0007206A1 is where these values come from.

Tested on: Chinese hamster ovary cells
Test Name: mitotic arrest assay (mitotic inhibitory activity)
Format: cell-based
Experimental Setup: 20.0 mcg/ml; five hours contact; second of two evaluations
// Mitotic Index (percent of cells held at mitosis) lookup, one value per entry
Unit % implied. Number only.

Example compounds with recorded Mitotic Index (percent of cells held at mitosis):
[[record]]
compound = "CC(C)(CCc1ccc(O)cc1)NCC(O)c1ccccc1 (racemic)"
measured_target = "Chinese hamster ovary cells"
reported = 33

[[record]]
compound = "CC(C)(CCc1ccc(C(N)=O)cc1)NCC(O)c1ccccc1 (stereo not shown)"
measured_target = "Chinese hamster ovary cells"
reported = 45

[[record]]
compound = "CNC(=O)c1ccc(CCC(C)(C)NCC(O)c2ccccc2)cc1 (racemic)"
measured_target = "Chinese hamster ovary cells"
reported = 38


Okay, next one:
Problem: Determine reported Mitotic Index (percent of cells held at mitosis) for CN(C)C(=O)c1ccc(CCC(C)(C)NCC(O)c2ccccc2)cc1 (racemic) ; test system: Chinese hamster ovary cells.
Solution: 46
